- test summary: NCI Yeast Anticancer Drug Screen. Data for the cln2 rad14 strain (AID 165)
- condition summary: S. cerevisiae cln2 rad14 strain, at 50.0 µM, active compounds read high
This is part of a sample that, as a whole, favours compounds with a hit. Of some 79,000 tested, about 15% had one in any assay.
Use T when the recorded growth inhibition is no lower than -20%; use F when it is lower.

| molecule | class name |
| --- | --- |
| COC(CCC#N)c1ccc(Cl)cc1 (stereo not given) | T |
| CN1C(=O)C(O)Nc2ncncc21 (stereo not given) | F |
| CCCCOc1ccc(/C=C/C(=O)OCC(CC)CCCC)cc1 (stereo not given) | F |
| COc1ccc(CSC(=S)Nc2ccc(C)c(Cl)c2)cc1 | T |
| CNCCC(=O)C1CCC(OC)CC1 (stereo not given) | F |
| COc1cccc(C(=O)C(O)c2cccc(OC)c2OC)c1OC (stereo not given) | T |
| Nc1ccc(C(C(=O)O)c2ccccc2)cc1 (stereo not given) | T |
| CCOC(=O)CNc1nc(Cl)nc(NCC(=O)OCC)n1 | F |
| COc1cc2c(cc1OC)C(C(CO)CO)N(CC(O)CCl)CC2 (stereo not given) | T |
| CC1=NN(c2ccccc2)C(=O)/C1=C1\SC(c2ccccc2)(c2ccccc2)c2ccccc21 | T |
| CC(C)CSC(C)C | T |
| CCCN(CCC)c1ccc(C(=O)c2ccccc2)cc1 | F |
| O=C1NN(c2ccccc2)C(=O)C2C3c4ccccc4C(c4ccccc43)C12 (stereo not given) | T |
| CCN1CCC(CC(c2ccccc2)c2ccccc2)C1 (stereo not given) | T |
| O=C(NC(Cc1c[nH]c2ccccc12)C(=O)O)C(=O)c1c[nH]c2ccccc12 (stereo not given) | T |
| COC(=O)C1C(c2ccccc2)C1(C#N)C#N (stereo not given) | F |
| O=S(=O)(O)CCCO | T |
| CCCCCCN1CCc2c(C)c(C#N)c3nc4ccccc4n3c21 | T |
| CC(=O)Oc1ccccc1Cl | T |
| Cc1ccccc1NCC(C)O (stereo not given) | F |
| Nc1ccc(S(=O)(=O)NC2C(O)OC(CO)C(O)C2O)cc1 (stereo not given) | F |
| COc1cc([N+](=O)[O-])ccc1NC(=O)Nc1ccc(Cl)cc1[N+](=O)[O-] | T |
| COc1cc(/C=C/C(=O)OCC23CC[C@@]4(C(=O)O)CCC(C)[C@H](C)C4C2=CCC2[C@@]4(C)CC[C@H](O)C(C)(C)C4CC[C@]23C)ccc1O (stereo not given in full) | T |
| Nc1ccc2c(c1)C1Oc3ccccc3CC1CO2 (stereo not given) | T |
| N#CC1C[C@@H]2CC3(CCC2CN1C(=O)c1ccccc1)OCCO3 (stereo not given in full) | F |
